Entries below carry reported pKi on Subcomponent "s" of Human Complement Component 1 (h C1s) (Homo sapiens, UniProt P09871).
Sequence (P09871 438-688 limits assumed): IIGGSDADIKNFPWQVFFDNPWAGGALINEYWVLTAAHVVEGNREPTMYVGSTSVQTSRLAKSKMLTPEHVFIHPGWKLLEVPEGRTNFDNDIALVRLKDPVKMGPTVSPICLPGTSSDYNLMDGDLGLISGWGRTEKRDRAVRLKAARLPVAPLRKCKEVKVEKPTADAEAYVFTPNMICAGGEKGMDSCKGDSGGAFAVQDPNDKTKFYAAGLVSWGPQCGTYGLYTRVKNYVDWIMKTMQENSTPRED
Sequence (P09871 16-437 partner limits assumed): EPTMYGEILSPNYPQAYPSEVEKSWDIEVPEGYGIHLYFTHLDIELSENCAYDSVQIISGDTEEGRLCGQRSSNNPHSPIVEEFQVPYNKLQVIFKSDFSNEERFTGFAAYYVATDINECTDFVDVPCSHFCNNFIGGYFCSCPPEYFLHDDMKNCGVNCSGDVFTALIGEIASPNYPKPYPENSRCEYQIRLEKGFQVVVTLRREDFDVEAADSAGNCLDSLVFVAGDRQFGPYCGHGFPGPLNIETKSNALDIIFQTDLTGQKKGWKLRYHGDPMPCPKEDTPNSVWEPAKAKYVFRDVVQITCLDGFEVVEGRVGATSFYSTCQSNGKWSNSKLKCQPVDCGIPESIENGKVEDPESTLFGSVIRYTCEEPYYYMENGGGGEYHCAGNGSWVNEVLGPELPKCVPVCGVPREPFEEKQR
pKi: −log10 of the molar value.

CN(CC1CCNCC1)C(=O)C[C@@H](NS(=O)(=O)Cc1ccccc1)C(=O)N1CCC[C@H]1C(=O)NCc1cc(Cl)ccc1CN ... < 4.30

// switching to the query compound
Could you tell me which pKi is on file for "NCc1ccc(Cl)cc1CNC(=O)[C@@H]1CCCN1C(=O)[C@@H](CC(=O)O)NS(=O)(=O)Cc1ccccc1" ?
< 4.30

====

molecular target: Human plasma kallikrein (h PK) (Homo sapiens); test: Inhibition of human plasma kallikrein (reference enzyme); details: S2302 substrate
Sequence (P03952 391-638 limits assumed): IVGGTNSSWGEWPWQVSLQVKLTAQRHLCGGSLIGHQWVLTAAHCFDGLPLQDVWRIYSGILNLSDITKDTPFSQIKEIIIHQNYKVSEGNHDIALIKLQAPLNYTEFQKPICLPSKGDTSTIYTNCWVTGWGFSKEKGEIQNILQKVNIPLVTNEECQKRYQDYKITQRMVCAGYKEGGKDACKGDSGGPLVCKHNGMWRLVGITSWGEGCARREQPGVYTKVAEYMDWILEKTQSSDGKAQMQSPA
Sequence (P03952 20-390 partner limits assumed): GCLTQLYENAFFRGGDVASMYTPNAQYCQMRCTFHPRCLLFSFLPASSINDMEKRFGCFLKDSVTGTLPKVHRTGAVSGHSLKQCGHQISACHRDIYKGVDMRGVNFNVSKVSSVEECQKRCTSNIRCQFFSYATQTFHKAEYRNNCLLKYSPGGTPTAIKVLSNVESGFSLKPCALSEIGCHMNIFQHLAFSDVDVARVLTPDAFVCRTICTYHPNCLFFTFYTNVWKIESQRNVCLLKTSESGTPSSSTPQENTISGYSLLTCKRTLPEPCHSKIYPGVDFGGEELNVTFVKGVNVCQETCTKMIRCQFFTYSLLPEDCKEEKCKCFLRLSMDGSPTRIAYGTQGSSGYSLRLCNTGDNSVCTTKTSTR
VALUE TYPE: Ki (nM)

(I) NCc1ccc(Cl)cc1CNC(=O)[C@@H]1CNCCN1C(=O)[C@@H](CC(=O)N1CCCCC1)NS(=O)(=O)Cc1ccccc1
(II) NCc1ccc(Cl)cc1CNC(=O)[C@@H]1CCCN1C(=O)[C@@H](CC(=O)Nc1ccncc1)NS(=O)(=O)Cc1ccccc1
(III) NCc1ccc(Cl)cc1CNC(=O)[C@@H]1CCCN1C(=O)[C@@H](CC(=O)N1CCSCC1)NS(=O)(=O)Cc1ccccc1
Hey, quick one: sort these by Ki, largest value first please. The response must list the labels following the requested ordering.
I, II, III
